test-name: phase 1 first-in-human trial, single ascending dose (SAD) PK
Assay type: in vivo
settings: human, plasma, po, 200 mg, healthy volunteers, fasted; single oral 200 mg (Cohort C); read-out: Tmax (range)
reported-property: Tmax

molecule	reported-property	meas-value
Brc1cccc(-c2cc(-c3ccc4c(c3)OCO4)n[nH]2)c1 [anle138b]	Tmax	1 to 2 h

----------
test-name: phase 1 first-in-human trial, single ascending dose (SAD) PK
Assay type: in vivo
settings: human, plasma, po, 300 mg, healthy volunteers, fasted; single oral 300 mg (Cohort D); read-out: Tmax (median)

compound	Tmax [h]
Brc1cccc(-c2cc(-c3ccc4c(c3)OCO4)n[nH]2)c1 [anle138b]	1.5

----------
test-name: phase 1 study in patients with mild to moderate Parkinson's disease (PK, safety)
Format: in vivo, human
settings: human, plasma, oral, 300 mg, PD patients; Regimen B 300 mg single dose on Day 9, fed state; read-out: C24 (geometric mean)

compound	result-units	concentration at 24 h
Brc1cccc(-c2cc(-c3ccc4c(c3)OCO4)n[nH]2)c1 [anle138b]	ng/mL	2.88

----------
test-name: phase 1 study in patients with mild to moderate Parkinson's disease (PK, safety)
Type: in vivo, human
settings: human, plasma, oral, 150 mg, PD patients; Regimen C 150 mg BID, fast; Day 1; tau 12 h; read-out: Ctau (geometric mean)

compound	concentration at 12 h, ng/mL
Brc1cccc(-c2cc(-c3ccc4c(c3)OCO4)n[nH]2)c1 [anle138b]	7.41

----------
test-name: phase 1 study in patients with mild to moderate Parkinson's disease (PK, safety)
Assay type: in vivo, human
settings: human, plasma, oral, 150 mg, PD patients; Regimen A 150 mg QD (row prints fed, title fasted state); Day 7; tau 24 h; read-out: AUC(0-tau) (geometric mean)
reported-property: AUC

molecule	reported-property	meas-value
Brc1cccc(-c2cc(-c3ccc4c(c3)OCO4)n[nH]2)c1 [anle138b]	AUC	~388 ng·h/mL

----------
test-name: phase 1 first-in-human trial, single ascending dose (SAD) PK
Format: in vivo
settings: human, plasma, po, 100 mg, healthy volunteers, fasted; single oral 100 mg (Cohort B); read-out: Tmax (median)

molecule	Tmax
Brc1cccc(-c2cc(-c3ccc4c(c3)OCO4)n[nH]2)c1 [anle138b]	1.5 h

----------
test-name: phase 1 first-in-human trial, single ascending dose (SAD) PK
Format: in vivo
settings: human, plasma, po, 100 mg, healthy volunteers, fasted; single oral 100 mg; plasma; read-out: T1/2 (geometric mean) (converted)
reported-property: half-life (min)

compound	reported-property	result-units	meas-value
Brc1cccc(-c2cc(-c3ccc4c(c3)OCO4)n[nH]2)c1 [anle138b]	half-life	min	648

----------
test-name: phase 1 first-in-human trial, food effect study (FES) PK
Type: in vivo
settings: human, plasma, po, 150 mg, healthy volunteers; single oral 150 mg; fasted; read-out: Tmax (median)

molecule	result-units	Tmax
Brc1cccc(-c2cc(-c3ccc4c(c3)OCO4)n[nH]2)c1 [anle138b]	h	1.25

----------
test-name: phase 1 study in patients with mild to moderate Parkinson's disease (PK, safety)
Format: in vivo, human
settings: human, plasma, oral, 300 mg, PD patients; Regimen B 300 mg QD (row prints fed, title fasted state); Day 1; tau 24 h; read-out: AUC(0-tau) (geometric mean)

compound	AUC
Brc1cccc(-c2cc(-c3ccc4c(c3)OCO4)n[nH]2)c1 [anle138b]	~2500 ng·h/mL

----------
test-name: phase 1 first-in-human trial, single ascending dose (SAD) PK
Format: in vivo
settings: human, plasma, po, 100 mg, healthy volunteers, fasted; single oral 100 mg; plasma; read-out: AUC(0-24) (geometric mean)

compound	AUC(0-t)
Brc1cccc(-c2cc(-c3ccc4c(c3)OCO4)n[nH]2)c1 [anle138b]	> 0.3 µg·h/mL

----------
test-name: phase 1 study in patients with mild to moderate Parkinson's disease (PK, safety)
Type: in vivo, human
settings: human, plasma, oral, 150 mg, PD patients; Regimen C 150 mg BID, fast; Day 1; read-out: Cmax (geometric mean)

compound	Cmax
Brc1cccc(-c2cc(-c3ccc4c(c3)OCO4)n[nH]2)c1 [anle138b]	~546 ng/mL

----------
test-name: phase 1 study in patients with mild to moderate Parkinson's disease (PK, safety)
Assay type: in vivo, human
settings: human, plasma, oral, 150 mg, PD patients; Regimen C 150 mg BID, fast; Day 1; read-out: Tmax (range)

compound	Tmax
Brc1cccc(-c2cc(-c3ccc4c(c3)OCO4)n[nH]2)c1 [anle138b]	1 to 2 h

----------
test-name: phase 1 study in patients with mild to moderate Parkinson's disease (PK, safety)
Format: in vivo, human
settings: human, plasma, oral, 150 mg, PD patients; Regimen A 150 mg QD (row prints fed, title fasted state); Day 7; read-out: Tmax (range)

compound	Tmax at 7 days
Brc1cccc(-c2cc(-c3ccc4c(c3)OCO4)n[nH]2)c1 [anle138b]	1 to 2 h
